All values here come from patent US12594264B2.

molecules and their reported remaining activity at 1 µM
# TESTED ON: sarkosyl insoluble (SI) α-synuclein (human α-SYN A53T) (Homo sapiens, UniProt P37840, A53T)
# Construct: expressed in transfected cells
# PROCEDURE DETAILS: MJFF-14-6-4-2 conformation specific ELISA of sarkosyl insoluble α-synuclein after compound treatment
# Format: cell-based
# EXPERIMENTAL CONDITIONS: 1 μM compound; protein remaining relative to DMSO control; PFF induced A53T α-synuclein overexpressing HEK293 cells; read-out: Protein Degradation at 1 μM

[
  {
    "MOLECULE": "Cc1ncsc1-c1ccc([C@H](C)NC(=O)[C@@H]2C[C@@H](O)CN2C(=O)[C@@H](NC(=O)COCCOCCOc2ccc(CN3C(=O)C(=CC=Cc4ccc([N+](=O)[O-])cc4)c4ccccc43)cc2)C(C)(C)C)cc1 (single isomer, unassigned)",
    "remaining activity at 1 µM": "35 to 70%"
  },
  {
    "MOLECULE": "COc1cc(/C=C/c2ccc3cc(OCCOCCOCCOc4ccc5c(c4)C(=O)N(C4CCC(=O)NC4=O)C5=O)ccc3n2)ccn1 (stereo not drawn)",
    "remaining activity at 1 µM": "70 to 120%"
  },
  {
    "MOLECULE": "Cc1ncsc1-c1ccc([C@H](C)NC(=O)[C@@H]2C[C@@H](O)CN2C(=O)[C@@H](NC(=O)COCCOCCOCCOc2ccc3c(c2)Sc2cc([N+](=O)[O-])ccc2N3)C(C)(C)C)cc1",
    "remaining activity at 1 µM": "> 120%"
  }
]
